test: yeast display, Sf9 membrane polyspecificity reagent, FACS + sequencing; frameworks hold sequencing errors
property label: polyreactivity (PSR sort gate)

1. QVQLVESGGGLVQAGGSLRLSCAASGSTLPGNVMGWYRQAPGKERELVAAISKRGASTYYADSVKGRFTISRDNAKNNVYLQTPRLKPEDSAVYYCASRTRGSVVRFDYWGQGTQVTVSS : high polyreactivity
2. QVQLVDSGGGLVQAGGSLRLSSAASGFTFVAYAMGGYRQAPGKERELVATITKGGGGTYYADSVKGRFTISRDNAKNTVYLQMNSLKPEDTAVYYCAADRQYRGRTRYVYAPLYYWGHGTQVTVSS : high polyreactivity
3. QVQLVESGGGLVQAGGSLRLSCAASGSIFSWYAMGWYRQAHGKEREFVAGISSSGSTKYADSVKGRFTISRDNAKNTVYLQMNSLKPEDTAVYYCAVANKSQRYFYYYFHYYYWGQGTQVTVSS : low polyreactivity
4. QVQLVESGGGLVQAGGSLRLSCAASGLTFVGYAMGWNRQAPGKERELVAAISGVGTTNYGDSVKGRFTISRDNAKNTVYLQMNSLKPEDTAVYYCAKAPYPVPYGLYDYWGQGTQVTVSS : low polyreactivity
5. QVQLVESGGGLVQAGGSLRLSCAAYGRTFRKNAMGWYRQAPVKERELVASMSKNGAGTYYADSVKGRFTISRDTAKNTVYLQMNSLKPEDTAVYYCAKLPNLPGDYWGQGTQVTVSS : low polyreactivity

Please give measured polyreactivity (PSR sort gate) of the following entry: `QVQLVESGGGLVQAGGSLRLSCAASGRIFAPKAMGWYRQAPGKERELVADINFSGDSTYYADSVKGRFTISRDNAKNTVYLQMNSLKPEDTAVYYCAADISLVSYYYWGQGTQVTVSS`
low polyreactivity

Give the value of polyreactivity (PSR sort gate) reported for the following: `QVQLVESGGGLVQAGGSLRLSCASSGIIFHYYAKGWYRQAPGKERELVATISWDGGNTYYADSVKGRFTISRDNAKNRVYLQMNSLKPEDTAVYYCNVYDKAPAYAYWGQGTQVTVSS`
low polyreactivity

====

assay: yeast display, Sf9 membrane polyspecificity reagent, FACS + sequencing; frameworks hold sequencing errors
property label: polyreactivity (PSR sort gate)

Some entries whose results are on file:
1) QVQLVESGGGLVQAGGSLRLSCAASGYIFLRNAMGWYRQAPGKERELVAAIRRTGGSTYYADSVKGRFTISRDNAKNTVYLQMNSLKPEDTAVYYCAKRSYTGYEYWGQGTQVTVSS : low polyreactivity
2) QDQLVESGGGLVQAGGSLRLSCAASGGTFGPNAMGWYRQSPGKERELVAAISASGGITYYADSVKGRFTISRDNAKNTVYLQMNSLKPEDTAVYYCAAAITWIYSQAAFKIVQYDYWGQGTQVTVSS : low polyreactivity
3) QVQLVESGAGLVQAGVSLRLSCAASGSIFADYAMGWYRQAPGKERELVAVISRRGGTTYYADSVKGRFTISRDNAKNTVYLPMNSLKPEDTAVYYCAARRSFNEYDYWGQGTQVTVSS : high polyreactivity
4) QVHLVDSGGGLVQAGGSLGLNCAASGRTLRYNAMGWYRQATGIERELVAAINWNGGSTYYADSVKGRFTISRETAMYTVYLQMNRLKPEDTAVYFCNDDFYHRYDWGQGTQVTVSS : high polyreactivity
5) QVQLVESGGGLVQAGGSLRLSCAASGSIFKYYAMGWYRQAPGKERELVAAITSGGSTSYADSVKGRFTISRDNAKNTVYLQMNSLKPEDTAVYYCAASGNSYRLRYWWSELDYWGQGTQVTVSS : high polyreactivity

Please list polyreactivity (PSR sort gate) recorded for the sequence `QVQLVESGGGLVQAGGSHRLSCAASGFTFVTYAMGWYRQAPGKERELVATISWGGGGTYYADSVKGRFTMSRDNAKNTVYFQLNSLKPEDTAVYYCAADNCYHYNFDYWGQGTQVTVSS`
low polyreactivity

Assign polyreactivity (PSR sort gate) to the following record: `QVQLVESGGGLVQAGGSLRLSWAASGSIFFLYAMGWYRQAPAKERELVAAITSIGGSTYADSVKGRFTISRDNAKNTVYLQMNSLKPEDTAVYYCNTDEYPLTVQVQYYYWGQGTEVTVSS`
low polyreactivity

Give recorded polyreactivity (PSR sort gate). `QVQLVESGGGLLQAGGSLRLSCSASGFIFHYYARGLYRQAPGKDRELVAAIRSGGSTYYADSVKGRFTISRDNAKNTVYLQMNSLKPEHTEVYFCNGRFYSRGYRYYYWGQGTQVTVSS`
high polyreactivity

Supply recorded polyreactivity (PSR sort gate) for `QVQLVESGGGLVQAGGSLRLSCAASGSIFSAYAMGWYRQAPGKERELVAAISSRGSRTYYAYSVKGRFTISRDYAKNSVYLQMNSLKPEDTAVYYCAADPFSSYYKMDYWGQGTQVTVSS` here.
high polyreactivity

State its polyreactivity (PSR sort gate) for this sequence: `QVQLQESGGGLVQAGGSLRMSCAASGNIFDADIMGWYRQAPGKERELVASITDGRRTNYADSVKGRYTISRDSEKNTVYLQMNSLKPEDTAVYYCAAIAYPVVPTYFDYDSDYFHWGQGTQVTVSS`
high polyreactivity

Answer with the recorded polyreactivity (PSR sort gate) of `QVQLVESGGGLVQAGGSLRFSCAASGRIFFWYAMGWYRQAPGKEWELVAAISRDGGTTYYADSVKGRFTISRDNAKNTVYLQMNSLKPEDTAVYYCNAEARSRRYRYDYWGQGTQVNVSS` only.
high polyreactivity

Origin of values: the nanobody polyreactivity screen of Harvey et al. (2022)
